pKi: −log10 of the molar value.
Study the reported pKi values for 5-hydroxytryptamine receptor 2C (Homo sapiens) given below; they originate from different publications.
measured_attribute: pKi

{"columns": ["molecule", "pKi"],
 "data": [
  ["COc1ccc(N2C(=O)c3c(Cl)cccc3C2C)cc1OCCN1CCC(C)CC1 (stereo not given)", 8.90],
  ["O=C(NCCC(O)CN1CCN(c2cccc(Cl)c2Cl)CC1)c1ccc2c(c1)Cc1ccccc1-2 (stereo not given)", 5.55],
  ["COc1ccc(N2Cc3c(F)c(F)cc(Cl)c3C2=O)cc1OCCN1CCC(C)CC1", 8.70],
  ["COc1cc(OC)c(C(=O)CCCCN2CCC3(CC2)NC(=O)NC3=O)cc1NS(=O)(=O)c1ccc(NC(C)=O)cc1", 7.40],
  ["Cc1noc2c1C(=O)CC(CN1CCC(c3noc4cc(F)ccc34)CC1)C2 (stereo not given)", 6.13],
  ["O=C(c1cc(Br)cn2ccnc12)N1CCN(CCc2ccc(F)cc2F)CC1", 6.32],
  ["Cn1cc(Br)c(C(=O)N2CCN(CCc3ccc(F)cc3)CC2)n1", 5.38]
]}

(P) c1ccc(CCN2CCCC(c3c(-c4ccccc4)[nH]c4ccccc34)C2)cc1 (stereo not given)
(Q) Fc1ccc(-c2noc3c2CCNCC3)cc1
Would you mind telling me which has the lower recorded pKi between P and Q ? Please respond with the label that marks your chosen entry.
P
(P: 5.62, Q: 6.11)
